- protocolNotes: Cell Viability - LYMP2-008 (AID 980); further: nearly all actives have a fitted effect of over 60% in size
- studyConditions: LYMP2-008 lymphoblastoid cell viability, qHTS; series mostly up to 92.2 µM
- Text: NIH Chemical Genomics Center [NCGC] NIH Molecular Libraries Screening Centers Network [MLSCN] National Institutes of Environmental Health Sciences [NIEHS] National Toxicology Program [NTP] We have developed a 1536-well cell-based assay for quantitative high throughput screening (qHTS) against a number of cell lines to determine in vitro cytotoxicity of small molecules. […] 8. Detection; Luminescence; Viewlux plate reader […]
Results filed as inconclusive are left out. Active and inactive are the calls of the source. The call rests on the fitted dose curve; in most records, active means well fitted cell-killing curve with a large enough effect; inconclusive means small, poorly fitted or top-dose-only effect; inactive means flat fitted curve, though single readings scatter.
Outcome codes: active, inactive

{"itemSmiles": "CC1(C)[C@@H]2CC[C@@]1(C)C(=O)C2", "label": "inactive"}
{"itemSmiles": "COc1ccccc1O", "label": "inactive"}
{"itemSmiles": "Oc1cccc(O)c1", "label": "inactive"}
{"itemSmiles": "CCCCOC(=O)c1ccc(O)cc1", "label": "inactive"}
{"itemSmiles": "O=C1c2c(O)cccc2Cc2cccc(O)c21", "label": "inactive"}
{"itemSmiles": "C[C@]12C[C@H](O)[C@H]3[C@@H](CCC4=CC(=O)CC[C@@]43C)[C@@H]1CC[C@@H]2C(=O)CO", "label": "inactive"}
{"itemSmiles": "O=C1O[C@H]([C@@H](O)CO)C(O)=C1O", "label": "inactive"}
{"itemSmiles": "CCCCCCCCCCCCOS(=O)(=O)O", "label": "inactive"}
{"itemSmiles": "Cc1c(O)cccc1C(=O)N[C@@H](CSc1ccccc1)[C@H](O)CN1C[C@H]2CCCC[C@H]2C[C@H]1C(=O)NC(C)(C)C", "label": "active"}
{"itemSmiles": "Cc1cc2nc3c(=O)[nH]c(=O)nc-3n(C[C@H](O)[C@H](O)[C@H](O)CO)c2cc1C", "label": "inactive"}
{"itemSmiles": "[Cl][In]([Cl])[Cl]", "label": "inactive"}
{"itemSmiles": "CC12CCC(CC1)C(C)(C)O2", "label": "inactive"}
{"itemSmiles": "Nc1ccc(S(=O)(=O)Nc2nccs2)cc1", "label": "inactive"}
{"itemSmiles": "Cc1cc(CC(=O)O)n(C)c1C(=O)c1ccc(Cl)cc1", "label": "inactive"}
{"itemSmiles": "NC(=O)c1ncn([C@@H]2O[C@H](CO)[C@@H](O)[C@H]2O)n1", "label": "inactive"}

* * *

Reported max response values follow for various compounds
- Test system: NIH3T3
- protocolNotes: Cytotoxic Profiling of Annotated Libraries Using Quantitative High-Throughput Screening (AID 1296008); further: on the % scale 0 is the no-effect control and ±100 the full control effect; nearly all actives have a fitted effect of over 60% in size
- studyConditions: Five cell lines viability, CellTiter-Glo ATP luminescence, 48-72 h; active compounds read low
- Method: Cell-based phenotypic screening is a commonly used approach to discover biological pathways, novel drug targets, chemical probes and high-quality hit-to-lead molecules. […] A pintool (Kalypsys) was used to transfer 23 nL of compound solution to the 1536-well assay plates. […] Plates were left at room temperature for 10 min before imaging the ATP-coupled luminescence using a ViewLux microplate imager (PerkinElmer, Waltham, MA).
Records with an inconclusive call do not appear. Active and inactive are the calls of the source. The call rests on the fitted dose curve; in most records, active means well fitted inhibition curve with a large enough effect; inconclusive means small, poorly fitted or top-dose-only effect; inactive means flat fitted curve, though single readings scatter.

{"compound": "O=c1cc[nH]c(=S)[nH]1", "max response": "-2.25% (inactive)"}
{"compound": "O=C1c2c(O)cccc2Cc2cccc(O)c21", "max response": "4.73% (inactive)"}
{"compound": "CN(C)CCCN1c2ccccc2CCc2ccccc21", "max response": "-1.95% (inactive)"}
{"compound": "O=C(O)c1ccccc1-c1ccc(C(F)(F)F)cc1", "max response": "-3.57% (inactive)"}
{"compound": "Cc1cc2nc3c(=O)[nH]c(=O)nc-3n(C[C@H](O)[C@H](O)[C@H](O)CO)c2cc1C", "max response": "4.08% (inactive)"}
{"compound": "CNC(=O)Oc1ccc2c(c1)[C@]1(C)CCN(C)[C@@H]1N2C", "max response": "-4.44% (inactive)"}
{"compound": "CC1(C)CO[C@@H](CC(=O)O)CN1", "max response": "-2.92% (inactive)"}
{"compound": "O=C1OC(OC(=O)c2cccnc2Nc2cccc(C(F)(F)F)c2)c2ccccc21 (configuration not stated)", "max response": "-3.9% (inactive)"}
{"compound": "CCCCc1ncc(/C=C(\\Cc2cccs2)C(=O)O)n1Cc1ccc(C(=O)O)cc1", "max response": "-1.7% (inactive)"}
{"compound": "CC[C@@]1(c2ccccc2)NC(=O)N(C)C1=O", "max response": "1.13% (inactive)"}
{"compound": "CCN(CC)CCOC(=O)C1(C2CCCCC2)CCCCC1", "max response": "1.01% (inactive)"}
{"compound": "CCCc1c(OCCCCc2nn[nH]n2)ccc(C(C)=O)c1O", "max response": "2.45% (inactive)"}

* * *

- Test system: CP201
- protocolNotes: qHTS profiling for inhibitors of Plasmodium falciparum proliferation (AID 504749);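 further: 0% = DMSO vehicle and full inhibition = artemisinin control; nearly all actives have a fitted effect of over 60% in size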
- studyConditions: P. falciparum in erythrocytes, SYBR Green DNA, 72 h; series mostly up to 28.7 µM
Inconclusive results are not listed. Calls of active or inactive are those of the source. The call rests on the fitted dose curve; in most records, active means well fitted inhibition curve with a large enough effect; inconclusive means small, poorly fitted or top-dose-only effect; inactive means flat fitted curve, though single readings scatter.

{"compound": "CCCc1c(OCCCCc2nn[nH]n2)ccc(C(C)=O)c1O", "outcome": "inactive"}
{"compound": "O=C1c2c(O)cccc2Cc2cccc(O)c21", "outcome": "inactive"}
{"compound": "O=Cc1ccccc1C=O", "outcome": "inactive"}
{"compound": "Cc1ccc(C(C)C)cc2c(C)ccc1-2", "outcome": "inactive"}
{"compound": "CCCn1cnc2c1c(=O)n(CCCCC(C)=O)c(=O)n2C", "outcome": "inactive"}
{"compound": "CSc1ccc2c(c1)N(CCC1CCCCN1C)c1ccccc1S2 (configuration not stated)", "outcome": "inactive"}
{"compound": "CCOC(CN1CCN(CC(C)C(=O)c2ccccc2)CC1)c1ccccc1 (configuration not stated)", "outcome": "inactive"}

* * *

- protocolNotes: qHTS assay to identify small molecule inhibitors of chordoma cells - UCH-2 (AID 1259356); further: on the % scale 0 is the no-effect control and ±100 the full control effect
- studyConditions: UCH-2 chordoma viability, CellTiter-Glo ATP luminescence, 48 h; series mostly up to 46.1 µM
Records with an inconclusive call do not appear. Active and inactive are the calls of the source. Calls follow the shape of the dose curve; as a rule, active = well fitted cell-killing curve with a large enough effect; inconclusive = small, poorly fitted or top-dose-only effect; inactive = flat fitted curve, though single readings scatter.
observationType: outcome

{"compound": "O=c1[nH]cnc2c1ncn2[C@@H]1O[C@H](CO)[C@@H](O)[C@H]1O", "result": "inactive"}
{"compound": "[Cl][In]([Cl])[Cl]", "result": "inactive"}
{"compound": "O=C(O)c1ccccc1-c1ccc(C(F)(F)F)cc1", "result": "inactive"}
{"compound": "CN1[C@@H]2CC(OC(=O)[C@H](CO)c3ccccc3)C[C@H]1[C@@H]1O[C@@H]12 (stereo partly specified)", "result": "inactive"}
{"compound": "Nc1ncnc2c1ncn2[C@@H]1O[C@H](CO)[C@@H](O)[C@H]1O", "result": "inactive"}
{"compound": "CNCCCC1c2ccccc2C=Cc2ccccc21", "result": "inactive"}
{"compound": "O=C(O)[C@@H]1CSCN1", "result": "inactive"}
{"compound": "CCCn1cnc2c1c(=O)n(CCCCC(C)=O)c(=O)n2C", "result": "inactive"}
{"compound": "CC1=C(C/C=C(\\C)CCC[C@H](C)CCC[C@H](C)CCCC(C)C)C(=O)c2ccccc2C1=O", "result": "inactive"}
{"compound": "CC(C(O)c1ccc(O)cc1)N1CCC(Cc2ccccc2)CC1 (stereo unspecified)", "result": "inactive"}
{"compound": "O=C1NC(=O)[C@@]2(CCOc3ccc(F)cc32)N1", "result": "inactive"}

* * *

- targetOfAssay: Hexokinase-4 (Homo sapiens) + Glucokinase regulatory protein (Homo sapiens) (UniProt P35557+Q14397)
- Sequence (P35557 whole entry, looked up): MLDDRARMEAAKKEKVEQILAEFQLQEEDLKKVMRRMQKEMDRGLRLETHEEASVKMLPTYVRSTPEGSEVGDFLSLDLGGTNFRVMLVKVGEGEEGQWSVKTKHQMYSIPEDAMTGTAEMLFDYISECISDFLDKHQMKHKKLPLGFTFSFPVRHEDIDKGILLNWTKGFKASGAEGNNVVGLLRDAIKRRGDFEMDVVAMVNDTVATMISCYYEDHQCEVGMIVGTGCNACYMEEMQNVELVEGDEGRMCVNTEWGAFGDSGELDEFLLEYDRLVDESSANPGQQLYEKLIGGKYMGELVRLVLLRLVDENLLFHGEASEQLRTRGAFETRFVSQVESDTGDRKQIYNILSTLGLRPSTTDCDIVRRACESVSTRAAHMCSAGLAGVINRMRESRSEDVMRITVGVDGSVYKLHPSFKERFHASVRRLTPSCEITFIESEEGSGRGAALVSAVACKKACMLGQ
- Sequence (Q14397 whole entry, looked up): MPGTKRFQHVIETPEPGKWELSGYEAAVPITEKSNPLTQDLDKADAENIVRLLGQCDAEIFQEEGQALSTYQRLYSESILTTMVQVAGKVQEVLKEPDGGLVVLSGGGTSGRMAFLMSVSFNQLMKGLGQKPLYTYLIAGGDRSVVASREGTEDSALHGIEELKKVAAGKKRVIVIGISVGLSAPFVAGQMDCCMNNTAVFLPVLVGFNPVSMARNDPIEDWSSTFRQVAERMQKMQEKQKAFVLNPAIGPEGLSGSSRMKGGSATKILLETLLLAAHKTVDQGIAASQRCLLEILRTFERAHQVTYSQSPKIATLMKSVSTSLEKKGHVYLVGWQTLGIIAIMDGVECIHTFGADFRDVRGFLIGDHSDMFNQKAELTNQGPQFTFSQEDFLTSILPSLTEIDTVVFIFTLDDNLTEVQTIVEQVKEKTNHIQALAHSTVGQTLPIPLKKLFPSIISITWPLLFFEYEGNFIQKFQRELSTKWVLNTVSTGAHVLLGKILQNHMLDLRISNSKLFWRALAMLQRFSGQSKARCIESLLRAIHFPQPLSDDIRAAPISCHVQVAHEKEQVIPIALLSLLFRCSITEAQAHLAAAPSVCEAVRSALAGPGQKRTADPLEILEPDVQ
- protocolNotes: qHTS assay for inhibitors of recombinant human GCK-GKRP interaction: HTRF assay (AID 743207);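 further: 0% = DMSO with GCK present and -100% = DMSO wells lacking GCK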
- studyConditions: recombinant GCK-GKRP HTRF binding, 60 min, with sorbitol-6-phosphate; series mostly up to 57.5 µM
Calls of active or inactive are those of the source. The call rests on the fitted dose curve; in most records, active means well fitted curve in the direction sought with a large enough effect; inconclusive means small, poorly fitted or top-dose-only effect, or another doubt; inactive means no such curve, though single readings can be large or run the other way.

{"compound": "CCN(CC)C(C)CN1c2ccccc2Sc2ccccc21 (configuration not stated)", "outcome": "inactive"}
{"compound": "C#CCN(C)Cc1ccccc1", "outcome": "inactive"}
{"compound": "CN(C)CCCN1c2ccccc2Sc2ccc(Cl)cc21", "outcome": "inactive"}
{"compound": "CNCC(O)c1ccc(O)c(O)c1 (configuration not stated)", "outcome": "inactive"}
{"compound": "CSc1ccc2c(c1)C(N1CCN(C)CC1)Cc1ccccc1S2 (configuration not stated)", "outcome": "inactive"}
{"compound": "CCN(CC)CCCC(C)Nc1c2ccc(Cl)cc2nc2ccc(OC)cc12 (configuration not stated)", "outcome": "inactive"}
{"compound": "Cc1cc(N)c2ccccc2[n+]1CCCCCCCCCC[n+]1c(C)cc(N)c2ccccc21", "outcome": "inactive"}
{"compound": "Nc1ncnc2c1ncn2[C@@H]1O[C@H](CO)[C@@H](O)[C@H]1O", "outcome": "inactive"}
{"compound": "CNCCCC1c2ccccc2C=Cc2ccccc21", "outcome": "inactive"}
{"compound": "CC(C)NC[C@H](O)c1ccc(O)c(O)c1", "outcome": "inactive"}
{"compound": "CNC(=O)Oc1ccc2c(c1)[C@]1(C)CCN(C)[C@@H]1N2C", "outcome": "inactive"}
{"compound": "Nc1cc(=O)[nH]c(N)n1", "outcome": "inactive"}

Each recorded value in this set is attributed to PubChem BioAssay (NCATS).
